Task for the reader: assign each of the following compounds its reported CC50.
Tested on: HepG2.117 cells
Assay: Cytotoxicity, ATPlite cell viability (TOX-HepG2.117)
Assay type: cell-based, human

# value lookup — system HepG2.117 cells, readout CC50, item C[C@H]1[C@H](C(=O)Nc2cc(F)c(F)c(F)c2)CCN1C(=O)C(=O)NC1(c2c[nH]nn2)CC(F)(F)C1
> 50 µM

Kindly consider the entry below.
For the record C[C@H]1[C@H](C(=O)Nc2ccc(F)c(C#N)c2)CCN1C(=O)C(=O)NC1(c2c[nH]nn2)CC(F)(F)C1 , what value of CC50 is listed for HepG2.117 cells?
> 50 µM
